Origin of values: patent US20040121946A9

ASSAYED TARGET: DRB1*1101 (DR5w11) (Homo sapiens, UniProt P01903+P01911, A100R/A169T/A87E/I96F/K41T/L162R/M171V/P40S/Q125H/Q178H/Q39Y/Q99D/R42S/S66Y/T262R/V115G/W38E)
Sequence (P01903 26-254 limits assumed, other chains not shown): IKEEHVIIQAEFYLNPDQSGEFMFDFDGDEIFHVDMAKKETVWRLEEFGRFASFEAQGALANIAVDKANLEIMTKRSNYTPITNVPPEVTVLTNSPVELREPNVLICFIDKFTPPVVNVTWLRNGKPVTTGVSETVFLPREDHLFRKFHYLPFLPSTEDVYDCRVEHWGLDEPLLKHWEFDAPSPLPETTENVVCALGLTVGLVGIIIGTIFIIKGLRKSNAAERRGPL
METHOD SUMMARY: HLA class II peptide binding assay, purified HLA
TEST CONDITIONS: Table XIX, DR supermotif peptides; unit not given
Assign class 1 to entries whose DR5w11 binding data meets or exceeds 0.005; assign class 0 to the rest.

Some solved cases for reference:
| TEST SMILES | GROUP LABEL |
| --- | --- |
| CC[C@H](C)[C@H](NC(=O)[C@H](CCSC)NC(=O)[C@H](Cc1ccc(O)cc1)NC(=O)[C@@H](NC(=O)[C@H](CC(=O)O)NC(=O)[C@@H](NC(=O)[C@@H](NC(=O)[C@H](CS)NC(=O)[C@@H](NC(=O)[C@@H]1CCCN1C(=O)[C@@H]1CCCN1C(=O)[C@@H](N)CCC(N)=O)[C@@H](C)CC)[C@@H](C)O)[C@@H](C)CC)C(C)C)C(=O)N[C@@H](CCSC)C(=O)N[C@H](C(=O)N[C@@H](CCCCN)C(=O)O)C(C)C | class 0 |
| CSCC[C@H](NC(=O)[C@@H](NC(=O)[C@H](Cc1ccc(O)cc1)NC(=O)[C@H](C)NC(=O)[C@H](CCC(=O)O)NC(=O)[C@@H](N)CC(=O)O)C(C)C)C(=O)N[C@@H](C)C(=O)NCC(=O)N[C@H](C(=O)NCC(=O)N[C@@H](CO)C(=O)N1CCC[C@H]1C(=O)N[C@@H](Cc1ccc(O)cc1)C(=O)N[C@H](C(=O)N[C@@H](CO)C(=O)O)C(C)C)C(C)C | class 0 |
| CSCC[C@H](NC(=O)[C@H](CC(C)C)NC(=O)[C@H](CCC(N)=O)NC(=O)[C@@H](NC(=O)[C@@H](NC(=O)[C@H](CC(C)C)NC(=O)[C@H](CCC(N)=O)NC(=O)[C@@H](NC(=O)[C@@H](N)[C@@H](C)O)C(C)C)C(C)C)[C@@H](C)O)C(=O)N1CCC[C@H]1C(=O)N[C@@H](Cc1ccc(O)cc1)C(=O)NCC(=O)N[C@@H](CS)C(=O)N[C@@H](CC(C)C)C(=O)N[C@@H](CC(C)C)C(=O)O | class 0 |
| CC[C@H](C)[C@H](NC(=O)CNC(=O)[C@H](CC(C)C)NC(=O)[C@H](CC(C)C)NC(=O)[C@H](CCCNC(=N)N)NC(=O)[C@@H](N)CO)C(=O)N[C@@H](CS)C(=O)N[C@@H](CC(C)C)C(=O)N[C@H](C(=O)N[C@@H](CO)C(=O)N[C@H](C(=O)N[C@H](C(=O)N[C@@H](CCC(N)=O)C(=O)N[C@@H](CC(C)C)C(=O)N[C@H](C(=O)O)C(C)C)C(C)C)[C@@H](C)O)[C@@H](C)O | class 1 |
| CC[C@H](C)[C@H](NC(=O)[C@H](CCCNC(=N)N)NC(=O)CNC(=O)[C@H](CCCNC(=N)N)NC(=O)[C@@H](NC(=O)[C@@H](NC(=O)[C@H](CCC(N)=O)NC(=O)[C@H](CC(C)C)NC(=O)[C@H](CC(N)=O)NC(=O)[C@H](CCC(N)=O)NC(=O)[C@H](Cc1ccccc1)NC(=O)[C@@H](NC(=O)[C@H](CO)NC(=O)[C@@H](N)CC(C)C)C(C)C)C(C)C)[C@@H](C)CC)C(=O)N[C@@H](CC(C)C)C(=O)O | class 1 |

We next turn to a different compound, shown below.
hey, is DR5w11 binding data for this one >= 0.005? CC[C@H](C)[C@H](NC(=O)[C@H](CCC(N)=O)NC(=O)[C@H](CCSC)NC(=O)[C@H](CS)NC(=O)[C@H](Cc1c[nH]c2ccccc12)NC(=O)[C@H](CC(N)=O)NC(=O)[C@H](CC(C)C)NC(=O)[C@@H](N)CC(C)C)C(=O)N[C@@H](C)C(=O)N[C@@H](CCCCN)C(=O)NCC(=O)N[C@@H](CCSC)C(=O)N[C@@H](CO)C(=O)N[C@@H](Cc1ccc(O)cc1)C(=O)N[C@@H](CC(C)C)C(=O)O
class 1

* * *

ASSAYED TARGET: HLA-A*6801 (Homo sapiens, UniProt P04439, A269V/D185E/E176V/E277Q/E87N/F33Y/G231S/I121M/I166T/I218V/L180W/L300P/L318F/N151K/P208A/P217A/Q86R/R169H/T345S)
Type: binding
TEST CONDITIONS: Table XXIII, HLA-A3 supermotif-bearing peptides
Where a SMILES comes first, the peptide text is derived from it. [ ]: non-standard residue; d: D form. Abu = CC[C@H](N)C(=O)O
MEASUREMENT TYPE: log10 IC50 (log10 of the value in nM)
The common logarithm of IC50 in nM is what is listed.

| MOLECULE | log10 IC50 |
| --- | --- |
| CC(C)C[C@H](NC(=O)[C@H](CCC(N)=O)NC(=O)[C@H](CC(=O)O)NC(=O)[C@H](Cc1c[nH]c2ccccc12)NC(=O)[C@@H]1CCCN1C(=O)[C@@H](NC(=O)[C@@H](NC(=O)[C@@H](N)Cc1c[nH]cn1)C(C)C)C(C)C)C(=O)N[C@@H](Cc1ccccc1)C(=O)N[C@@H](CCCCN)C(=O)O | 0.95 |

Would you mind giving log10 IC50 for every molecule in the list below?
1. CC[C@H](NC(=O)CNC(=O)CNC(=O)[C@H](C)NC(=O)[C@H](CC)NC(=O)[C@@H](NC(=O)[C@@H](N)[C@@H](C)O)C(C)C)C(=O)N[C@@H](C)C(=O)N[C@@H](CCCCN)C(=O)O [Her2/neu.218.B3B7K9] (H-TV[Abu]AGG[Abu]AK-OH)
2. CC[C@H](NC(=O)[C@H](CC(N)=O)NC(=O)[C@@H](NC(=O)[C@@H](N)CC)C(C)C)C(=O)N[C@@H](CO)C(=O)N[C@@H](CCC(N)=O)C(=O)N[C@@H](Cc1ccccc1)C(=O)N[C@@H](CC(C)C)C(=O)N[C@@H](CCCCN)C(=O)O [Her2/neu.528.B1B4K9] (H-[Abu]VN[Abu]SQFLK-OH)
3. CC[C@H](C)[C@H](N)C(=O)N[C@@H](CO)C(=O)N[C@@H](Cc1c[nH]c2ccccc12)C(=O)N[C@@H](CC(C)C)C(=O)NCC(=O)N[C@@H](CC(C)C)C(=O)N[C@@H](CCCNC(=N)N)C(=O)N[C@@H](CO)C(=O)N[C@@H](CC(C)C)C(=O)N[C@@H](CCCNC(=N)N)C(=O)O
4. CC[C@H](C)[C@H](N)C(=O)N[C@H](C(=O)N[C@@H](CCCCN)C(=O)NCC(=O)NCC(=O)N[C@H](C(=O)N[C@@H](CC(C)C)C(=O)N[C@H](C(=O)N[C@@H](CCC(N)=O)C(=O)N[C@@H](CCCCN)C(=O)O)[C@@H](C)CC)C(C)C)C(C)C

0.86
1.18
1.86
1.43

So what's the measured log10 IC50 for this one? CC[C@H](C)[C@H](N)C(=O)N[C@@H](CC(C)C)C(=O)N[C@@H](Cc1c[nH]c2ccccc12)C(=O)N[C@@H](CCCCN)C(=O)N[C@@H](CC(=O)O)C(=O)N[C@H](C(=O)N[C@@H](Cc1ccccc1)C(=O)N[C@@H](Cc1c[nH]cn1)C(=O)N[C@@H](CCCCN)C(=O)O)[C@@H](C)CC
3.24

* * *

Kindly state pIC50 for each of the entries shown.
ASSAYED TARGET: HLA-A*6801 (Homo sapiens, UniProt P04439, A269V/D185E/E176V/E277Q/E87N/F33Y/G231S/I121M/I166T/I218V/L180W/L300P/L318F/N151K/P208A/P217A/Q86R/R169H/T345S)
TEST CONDITIONS: Table XXIII, HLA-A3 supermotif-bearing peptides
Where a SMILES comes first, the peptide text is derived from it. [ ]: non-standard residue; d: D form. Abu = CC[C@H](N)C(=O)O
Answers are plain numbers, as −log10 of the molar value.

Example entries and their recorded answers appear below.
| COMPOUND | pIC50 |
| --- | --- |
| CC[C@H](C)[C@H](N)C(=O)N[C@H](C(=O)N[C@@H](Cc1c[nH]c2ccccc12)C(=O)N[C@@H](CC(C)C)C(=O)NCC(=O)N[C@@H](CC(C)C)C(=O)N[C@@H](CCCNC(=N)N)C(=O)N[C@@H](CO)C(=O)N[C@@H](CC(C)C)C(=O)N[C@@H](CCCNC(=N)N)C(=O)O)C(C)C | 8.14 |
| CC[C@H](C)[C@H](N)C(=O)N[C@H](C(=O)N[C@@H](Cc1c[nH]c2ccccc12)C(=O)N[C@@H](CCCCN)C(=O)N[C@@H](CC(=O)O)C(=O)N[C@H](C(=O)N[C@@H](Cc1ccccc1)C(=O)N[C@@H](Cc1c[nH]cn1)C(=O)N[C@@H](CCCNC(=N)N)C(=O)O)[C@@H](C)CC)C(C)C | 7.82 |

Next compound, pIC50 to be filled in.
So what's the measured pIC50 for this one? CC[C@H](NC(=O)CNC(=O)CNC(=O)[C@H](C)NC(=O)[C@H](CC)NC(=O)[C@@H](NC(=O)[C@@H](N)[C@@H](C)O)C(C)C)C(=O)N[C@@H](C)C(=O)N[C@@H](CCCNC(=N)N)C(=O)O [Her2/neu.218.B3B7] (H-TV[Abu]AGG[Abu]AR-OH)
8.10
